system: DeltatarO mutant; experiment: S. aureus survival, RN4220 and DeltatarO strains – OD600, teichoic acid synthesis inhibitors, primary screen (AID 463173); conditions: S. aureus RN4220 wild type/DeltatarO growth, OD600, 18 h, screened at 18.75 µg/mL (by protocol)
About 4,300 (8.3%) of roughly 52,000 compounds were called active. Cut-off read from the data, not from the text of the source: active = survival mostly below about 52% (no sharp cut-off); inactive = mostly above about 56%. This is one part of a sample in which actives are shown more often than they occur.
Field 'call' accepts 1 = active, 0 = inactive

Use the examples below as a reference point.
CC(C)Cn1c(SCc2cccc(F)c2)nc2ccsc2c1=O    0
Oc1ccccc1-c1nc(/C=C/c2ccccc2Cl)no1    0
CCOc1ccccc1NC(=O)Cn1nnc2sc3c(c2c1=O)CCC(C(C)(C)C)C3 (stereo not drawn)    0

[in] Could you please tell me the result logged for Oc1ccccc1-c1nc(/C=C/c2ccccc2Cl)nn1-c1ccccc1 in this assay?
[out] 1

[in] Could you please tell me the result logged for COc1ccc(/C=C/c2noc(-c3ccccc3O)n2)cc1OC in this assay?
[out] 0

[in] Could you please tell me the result logged for COc1cc2c(-c3cc(Br)ccc3O)nc3c(c(C)nn3-c3ccccc3)c2cc1OC in this assay?
[out] 0

[in] Could you please tell me the result logged for Cc1c(C(=O)OCCOc2ccccc2)[nH]c2c1C(=O)CC(c1ccccc1Cl)C2 (stereo not drawn) in this assay?
[out] 0

[in] Could you please tell me the result logged for CN(C)c1ccc(-c2nc(-c3ccncc3)no2)cc1[N+](=O)[O-] in this assay?
[out] 0

[in] Could you please tell me the result logged for Fc1ccc(Nc2ncnc3c2nc2n3CCCCC2)c(F)c1 in this assay?
[out] 0

[in] Could you please tell me the result logged for CN(C)c1ccc(-c2nc(-c3ccco3)no2)cc1[N+](=O)[O-] in this assay?
[out] 0

[in] Could you please tell me the result logged for COc1ccc2c(c1)c1c(c(=O)n(-c3ccccc3C)c(=O)n1Cc1cccc(C(F)(F)F)c1)n2C in this assay?
[out] 0

[in] Could you please tell me the result logged for Cc1ccc(OCCn2nnc3sc4c(c3c2=O)CCC(C)C4)cc1 (stereo not drawn) in this assay?
[out] 0

[in] Could you please tell me the result logged for Cc1cccc2cc(CN(CCO)S(=O)(=O)c3ccc(Cl)cc3)c(=O)[nH]c12 in this assay?
[out] 0

[in] Could you please tell me the result logged for COC(=O)c1ccc(Cn2nnc3sc4c(c3c2=O)CCC(C)C4)cc1 (stereo not drawn) in this assay?
[out] 0

[in] Could you please tell me the result logged for CC1CCc2c(sc3nnn(Cc4ccc(F)cc4)c(=O)c23)C1 (stereo not drawn) in this assay?
[out] 1

[in] Could you please tell me the result logged for CCOC(=O)C1CCN(C(=O)c2ccc3c(=O)n4nc(Nc5ccccc5)sc4nc3c2)CC1 in this assay?
[out] 0

[in] Could you please tell me the result logged for CCc1cccc(C)c1NC(=O)Cn1cnc2c1c(=O)n(C)c(=O)n2C in this assay?
[out] 0

[in] Could you please tell me the result logged for Cc1oc(-c2ccc(Cl)cc2)nc1CN1CCCC(C(=O)NCc2ccccc2)C1 (stereo not drawn) in this assay?
[out] 0

###

survival overview
test system: DeltatarO mutant; experiment: S. aureus survival, RN4220 and DeltatarO strains – OD600, teichoic acid synthesis inhibitors, primary screen (AID 463173); details: S. aureus RN4220 wild type/DeltatarO growth, OD600, 18 h, stronger effect = lower value, screened at 18.75 µg/mL (by protocol)
Among all 52,000 compounds or so, about 4,300 (8.3%) were called active. Many of the other results were omitted from the sample, so actives are more common in it than they were.
The figure you give is taken to be in %; do not add the unit.

CCCCCC(=O)N1c2ccccc2C(C)(c2ccccc2)CC1(C)C (centres undefined)    -2
CCOc1ccc(CN(C(=O)c2nc(SC)ncc2Cl)C2CCS(=O)(=O)C2)cc1 (centres undefined)    88
CC(=O)N1c2ccccc2C(C)(c2ccc(C)cc2)CC1(C)C (centres undefined)    -4
COc1ccc(C2=C(N3CCN(c4cc(C)ccc4C)CC3)c3ccccc3C2=O)cc1    28
COc1cccc(NC(=O)CN2C=NS(=O)(=O)c3ccccc32)c1    122

[in] Look up and report measured survival for this entry: Cc1c(Cl)cccc1Nc1sc(C(=O)c2ccccc2)c(N)c1S(=O)(=O)c1ccccc1
[out] 71

[in] Look up and report measured survival for this entry: COc1cccc(N2CCN(C(=O)CCc3c(C)nc4c(c3C)c(=O)n(C)c(=O)n4C)CC2)c1
[out] 98

[in] Look up and report measured survival for this entry: CCOC(=O)c1cc(C)n(CC2CCC(C(=O)Nc3ccc(C)cc3)CC2)c1C (centres undefined)
[out] 98

[in] Look up and report measured survival for this entry: O=C(Nc1cc(-c2nc3cc(Cl)ccc3o2)ccc1Cl)c1cccc2ccccc12
[out] 44
